- Tested on: PA-1
- assay summary: Primary qHTS to identify gynecologic anti-cancer compounds using libraries of approved drugs and bioactive compounds (AID 1345084); note: nearly all actives have a fitted effect of over 55% in size; note: potency is the fitted concentration of half-maximal effect
- cond: Gynecologic cancer cell panel viability, ATPlite luminescence, 48 h; series mostly up to 57.5 µM
Inconclusive results are not listed. Active and inactive are the calls of the source. Calls come from the whole dose curve; as a rule, active = well fitted cell-killing curve with a large enough effect; inconclusive = small, poorly fitted or top-dose-only effect, or effect the other way; inactive = flat fitted curve, though single readings scatter.
parameter: Potency

compound: C#CCO[C@H]1CN2CCC1CC2
result: inactive

compound: CO[C@H]1[C@@H](O)[C@@H](C)O[C@@H](O[C@@H]2C=C3C(OC(C)=O)CC4(O)C(CC[C@]5(C)[C@@H](C6=CC(=O)OC6)CC[C@]45O)[C@@]3(C)CC2)[C@@H]1O (stereo not given in full)
result: 316 nM (active)

compound: CC[C@@]1(O)C(=O)OCc2c1cc1n(c2=O)Cc2cc3c(OC)cccc3nc2-1
result: 89.1 nM (active)

compound: c1ccc(C2(c3ccccc3)OC[C@@H]([C@H]3CCCCN3)O2)cc1
result: inactive

compound: CC1=CC2/C=C(\C)CCC(O)C(O)/C=C/C(=O)OC23C(=O)NC(CC(C)C)C3C1C (stereo not given)
result: inactive

compound: CCC1CN2CCc3cc(OC)c(OC)cc3C2CC1CC1=NCCc2cc(O)c(OC)cc21 (stereo not given)
result: inactive

compound: C=C[C@H]1CN2CCC1C[C@H]2[C@H](O)c1ccnc2ccccc12 (stereo not given in full)
result: inactive

compound: CC(=O)OC[C@]12C[C@H](OC(=O)CC(C)C)C(C)=C[C@H]1O[C@@H]1[C@H](O)C[C@@]2(C)[C@]12CO2
result: 1000 nM (active)

compound: CC(C)=CCC[C@]1(C)C=Cc2c(O)c3c(c(CC=C(C)C)c2O1)O[C@]12C(=C[C@@H]4CC1C(C)(C)O[C@@]2(C/C=C(/C)C(=O)O)C4=O)C3=O
result: 4470 nM (active)

compound: C[C@@H]1[C@H](O)[C@@H](C)/C=C/C=C/CC/C=C/C=C/C=C/C=C/[C@H](O[C@H]2O[C@@H](C)[C@H](O)[C@@H](N)[C@H]2O)C[C@@H]2O[C@](O)(C[C@@H](O)[C@H](O)CC[C@@H](O)C[C@@H](O)C[C@@H](O)CC(=O)O[C@H]1C)C[C@H](O)[C@H]2C(=O)O
result: inactive

compound: Clc1ccc([C@]23CNC[C@H]2C3)cc1Cl
result: inactive

compound: CC(C)[C@H]1OC(=O)[C@H](Cc2ccccc2)N(C)C(=O)[C@@H](C(C)C)OC(=O)[C@H](Cc2ccccc2)N(C)C(=O)[C@@H](C(C)C)OC(=O)[C@H](Cc2ccccc2)N(C)C1=O
result: 7940 nM (active)

compound: Oc1ccc2c3c1O[C@H]1c4[nH]c5c(N=C=S)cccc5c4C[C@@]4(O)[C@@H](C2)N(CC2CC2)CC[C@]314
result: inactive

compound: N#CC(O[C@@H]1O[C@H](CO)[C@@H](O)[C@H](O)[C@H]1O)c1ccccc1 (stereo not given in full)
result: inactive

compound: C=CCN1CCC2(C)c3cc(O)ccc3C[C@H]1[C@H]2C
result: inactive

====

- assay summary: HEK-293 Cancer Cell Toxicity qHTS against the NCATS CANVASS Library (AID 1347355); note: nearly all actives have a fitted effect of over 65% in size
- cond: HEK-293 viability, CellTiter-Glo luminescence, 72 h; series mostly up to 46.1 µM
Results filed as inconclusive are left out. Active and inactive are the calls of the source. Calls come from the whole dose curve; as a rule, active = well fitted cell-killing curve with a large enough effect; inconclusive = small, poorly fitted or top-dose-only effect; inactive = flat fitted curve, though single readings scatter.
Outcome codes: t = active, f = inactive

molecule: O=C(c1ccccc1O)c1[nH]c(Cl)c(Cl)c1-n1c(C(=O)c2ccccc2O)cc(Cl)c1Cl
class label: t
//
molecule: CC1=CC(=O)C2=C(C)C[C@H](O)[C@@H]3[C@H](OC(=O)[C@@H]3C)[C@@H]12
class label: f
//
molecule: CO[C@@H](/C=C/CC/C=C/C(=O)O)[C@@H](O)[C@H](C)[C@@H](O)/C(C)=C/[C@H](C)C(=O)CCCC1CC(=O)NC(=O)C1
class label: f
//
molecule: COc1ccc2c(c1)[nH]c1c(C)nccc12
class label: t
//
molecule: C[C@]12CC(O)C3[C@@H](CCC4C[C@@H](O)CC[C@@]43CO)[C@@]1(O)CCC2C1=CC(=O)OC1 (stereo partly drawn)
class label: f
//
molecule: CO[C@@H](/C=C/CC/C=C/C(=O)O)[C@@H](O)[C@H](C)/C=C(\C)[C@@H](O)[C@H](C)C(=O)CCCC1CC(=O)NC(=O)C1
class label: f
//
molecule: CCCC[C@@H]1CC[C@H]2CCCC(CCC)N12 (stereo partly drawn)
class label: f
//
molecule: CN(C)Cc1c[nH]c2ccccc12
class label: f

====

- System: HeLa
- assay summary: Primary qHTS to identify gynecologic anti-cancer compounds using libraries of approved drugs and bioactive compounds (AID 1345084); note: nearly all actives have a fitted effect of over 55% in size
- cond: Gynecologic cancer cell panel viability, ATPlite luminescence, 48 h; series mostly up to 57.5 µM
Inconclusive results are not listed. Active and inactive are the calls of the source. Calls follow the shape of the dose curve; as a rule, active = well fitted cell-killing curve with a large enough effect; inconclusive = small, poorly fitted or top-dose-only effect, or effect the other way; inactive = flat fitted curve, though single readings scatter. *1 amine or outer side, *2 acyl side, *3 side chain or, on linkers, in order; H or OH if unused. Where a SMILES comes first, the peptide text is derived from it. [ ]: non-standard residue; d: D form. X5 = CC(CC(O[*:1])C(=O)[*:2])C(=O)O; NMeV = CN[CH](C(=O)O)C(C)C; NMeA = CN[CH](C)C(=O)O; βAla = NCCC(=O)O
Outcomes: active, inactive

compound: COC(=O)C12C(=O)C(C)(O)C(=O)C1(C)C(C)=CC1C3(C=O)CCC(OC(C)=O)C(C)(C)C3CCC12C (stereo not given)
class label: inactive

compound: COC1C=CC23c4cc5c(cc4COC2(O)CN(C)C3C1)OCO5 (stereo not given)
class label: inactive

compound: CO[C@@H]1[C@H](O)[C@@H](O[C@@H]2C[C@H]3CC[C@@H]4C(CC[C@]5(C)[C@@H](C6=CC(=O)OC6)CC[C@]45O)[C@@]3(C)[C@H](O)C2)O[C@H](C)[C@@H]1O (stereo not given in full)
class label: active

compound: CC1=CC2OC3[C@H](O)C[C@@](C)([C@]34CO4)[C@@]2(CO)[C@H](O)C1=O (stereo not given in full)
class label: active

compound: CC/C=C/C=C/C1(C)OC(OC)=C(C(=O)C2C(C)C(=O)c3cc(OC)c(O)c(O)c3C2(C)O)C1=O (stereo not given)
class label: inactive

compound: C/C=C1/CN2CC[C@]34C(=Nc5ccccc53)[C@@H]2C[C@@H]1[C@H]4C(=O)OC
class label: inactive

compound: CNC(=O)c1cc(C#N)cc(C)c1NC(=O)c1cc(Br)nn1-c1ncccc1Cl
class label: inactive

compound: CN(C)[C@@H]1C(=O)C(C(N)=O)=C(O)[C@@]2(O)C(=O)C3=C(O)c4c(O)ccc(Cl)c4[C@@](C)(O)C3C[C@@H]12 (stereo not given in full)
class label: inactive

compound: C=CC(C)(C)c1[nH]c2c(CC=C(C)C)cc(CC=C(C)C)cc2c1C[C@@H]1NC(=O)[C@H](C)NC1=O
class label: inactive

compound: C[C@H]1CN(Cc2ccc(CC(=O)N3CCC(Nc4cccc(F)c4)CC3)cc2)CCN1
class label: inactive

compound: COc1cc2c(cc1O)C1(C)CCC(O)C(C)(C)C1CC2=O (stereo not given)
class label: inactive

compound: C=C1[C@@H](O)[C@]2(O)OC[C@]34C2[C@]2(C)C(C[C@H]3OC(=O)[C@H](O)[C@@]14O)C(C)=CC(=O)[C@H]2O (stereo not given in full)
class label: inactive

compound: C[C@@]1(CO)[C@H](O)CC[C@@]2(C)[C@H]1CC[C@H]1C[C@@H]3C[C@@]12CC[C@]3(O)CO
class label: inactive

compound: CCOP(=O)(OCC)Oc1ccc2c(C)cc(=O)oc2c1
class label: inactive

compound: C#CC1(O)CCC2C3CCC4=CC(=O)CCC4=C3C=CC21C (stereo not given)
class label: active

compound: Cc1c(Cl)c(OCC(=O)N2CCN(C)CC2)nc2sc(C(=O)NC3CC3)c(N)c12
class label: inactive

compound: Cc1ccc(Cn2nc(C(=O)N[C@@H]3C(C)(C)[C@@H]4CC[C@@]3(C)C4)cc2-c2ccc(Cl)c(C)c2)cc1
class label: inactive

compound: O=C1Nc2ccc3ncsc3c2/C1=C/c1cnc[nH]1
class label: active

compound: CN(C(=O)CN1C(=O)COc2cc(Cl)c(Cl)cc21)[C@@H](CN1CCCC1)c1ccc(-c2cccc(C(N)=O)c2)cc1
class label: inactive

compound: C=C(C)[C@@]12O[C@@H]1[C@@]1(C)C(=C[C@H]2O)CC[C@@H](O)[C@@H]1C
class label: inactive

compound: C#CCO[C@H]1CN2CCC1CC2
class label: inactive

compound: CCCN(CCC)[C@@H]1CCc2ccc3[nH]c(C#N)cc3c2C1
class label: inactive

compound: COC1CC(OC2CCC3(C=O)C(CCC4C3CCC3(C)C(C5=CC(=O)OC5)CCC43O)C2)OC(C)C1O (stereo not given)
class label: active

compound: CN1C(=O)[C@@H](Cc2c[nH]c3ccccc23)N=C(c2ccccc2F)c2ccccc21
class label: inactive

compound: COc1ccc(C(C)(C)C)cc1CN[C@H]1C2CCN(CC2)[C@H]1C(c1ccccc1)c1ccccc1
class label: inactive

compound: Cc1c(N2C(=O)[C@@H]3[C@H](O)CCN3C2=O)ccc(C#N)c1Cl
class label: inactive

compound: CCC1C2CC3C4N(C)c5ccccc5C45CC(C2C5O)N3C1O (stereo not given)
class label: inactive

compound: CN[C@@H]1C[C@H]2O[C@@](C)([C@@H]1OC)n1c3ccccc3c3c4c(c5c6ccccc6n2c5c31)C(=O)NC4
class label: active

compound: CCC(C)C1NC(=O)C2CCCN2C(=O)C(CC(C)C(=O)O)OC(=O)CCNC(=O)C(C)N(C)C(=O)C(C(C)C)N(C)C1=O (stereo not given) (cyclo([X5]PI[NMeV][NMeA][βAla]); configuration not given here)
class label: inactive

compound: CC[C@H]1C2CC3[C@@H]4N(C)c5ccccc5[C@]45C[C@@H]([C@H]2[C@H]5O)N3[C@@H]1O
class label: inactive

compound: COc1ccc(CCNCc2ccc(OC)c3ccccc23)cc1
class label: inactive

compound: CN1C2CCC1CC(OC(=O)N1Cc3ccccc3NC1=O)C2 (stereo not given)
class label: inactive

compound: CC(C)OC(=O)c1ccnc2cc(C(OCCN3CCCCC3)c3ccccc3Cl)sc12 (stereo not given)
class label: inactive

compound: CO[C@H]1C[C@H](O[C@H]2CC[C@]3(C=O)[C@H]4CC[C@]5(C)[C@@H](C6=CC(=O)OC6)CC[C@]5(O)[C@@H]4CC[C@]3(O)C2)O[C@H](C)[C@H]1O
class label: active

compound: CCC(C)C1NC(=O)C(C(C)=O)=C1O (stereo not given)
class label: inactive

Origin of measurements: PubChem BioAssay (NCATS)
